experiment: Lactate dehydrogenase (LDH) release assay; type: cell-based; settings: 10% FBS 16Hr; read-out: LDH: Cytotoxicity assay EC50

- Compound: "CC(=O)N[C@@H](CCCCN=[N+]=[N-])C(=O)NCCC(=O)N[C@@H](CC(C)C)C(=O)N[C@H](C(=O)N[C@@H](Cc1ccccc1)C(=O)N[C@]1(C)CCCCC#CC#CCCC[C@@](C)(C(=O)N[C@@H](C)C(=O)N[C@@H](C)C(=O)NC(C)(CCC(=O)O)C(=O)N[C@@H](C)C(=O)N[C@@H](C)C(=O)N[C@H](C)C(N)=O)NC(=O)[C@H](CC2CCC2)NC(=O)[C@H](CCC(N)=O)NC(=O)[C@H](C)NC(=O)[C@H](Cc2c[nH]c3ccccc23)NC(=O)[C@H](Cc2ccc(O)cc2)NC(=O)[C@H](CCC(=O)O)NC1=O)[C@@H](C)O (stereo partly shown) [MP-467]"
  EC50: "> 50.7 µM"

====

system: HCT116 cells; test: Lactate dehydrogenase (LDH) release assay; format: cell-based; settings: 10% FBS 16Hr
Positions of bridges follow the written chain, without caps; N, C: chain ends. Non-standard residues stand in square brackets, D forms with d. Residues, ends and D or L forms follow the SMILES beside them. Lys(N3) = [N-]=[N+]=NCCCC[C@H](N)C(=O)O; R8 = C=CCCCCCC[C@@](C)(N)C(=O)O; Cba = N[C@@H](CC1CCC1)C(=O)O; S5 = C=CCCC[C@](C)(N)C(=O)O; βAla = NCCC(=O)O
Quantity: LDH: Cytotoxicity assay: % Effect (%)

- Compound: "CC(=O)N[C@@H](CCCCN=[N+]=[N-])C(=O)NCCC(=O)N[C@H]1CCCCNC(=O)CC[C@@H]2NC(=O)[C@@](C)(CCCCCCC=CCCC[C@@](C)(C(=O)N[C@@H](CO)C(=O)N[C@@H](C)C(=O)N[C@@H](C)C(N)=O)NC(=O)[C@H](CC3CCC3)NC(=O)[C@H](CCC(N)=O)NC(=O)[C@H](C)NC(=O)[C@H](Cc3c[nH]c4ccccc34)NC(=O)[C@H](Cc3ccc(O)cc3)NC2=O)NC(=O)[C@H](Cc2ccccc2)NC(=O)[C@H]([C@@H](C)O)NC1=O"
  Quantity: "LDH: Cytotoxicity assay: % Effect"
  Test value: -11.6
- Compound: "CC(=O)N[C@@H](CCCCN=[N+]=[N-])C(=O)NCCC(=O)N[C@@H](CC(C)C)C(=O)N[C@H](C(=O)N[C@@H](Cc1ccccc1)C(=O)N[C@]1(C)CCCCCCC=CCCC[C@@](C)(C(=O)NCC(=O)NCC(=O)NCC(=O)NCC(=O)NCC(=O)NCC(N)=O)NC(=O)[C@H](CC2CCC2)NC(=O)[C@H](CCC(N)=O)NC(=O)[C@H](C)NC(=O)[C@H](Cc2c[nH]c3ccccc23)NC(=O)[C@H](Cc2ccc(O)cc2)NC(=O)[C@H](CCC(=O)O)NC1=O)[C@@H](C)O [MP-289] (Ac-[Lys(N3)][βAla]LTF[R8]EYWAQ[Cba][S5]GGGGGG-NH2; staple 6-13)"
  Quantity: "LDH: Cytotoxicity assay: % Effect"
  Test value: 3.579
- Compound: "CC(=O)N[C@@H](CCCCN=[N+]=[N-])C(=O)NCCC(=O)N[C@@H](CC(C)C)C(=O)N[C@H](C(=O)N[C@@H](Cc1ccccc1)C(=O)N[C@]1(C)CCCCCCC=CCCC[C@@](C)(C(=O)N2CCC[C@@H]2C(=O)N2CCC[C@@H]2C(=O)N2CCC[C@@H]2C(=O)N2CCC[C@@H]2C(=O)N2CCC[C@@H]2C(=O)N2CCC[C@@H]2C(N)=O)NC(=O)[C@H](CC2CCC2)NC(=O)[C@H](CCC(N)=O)NC(=O)[C@H](C)NC(=O)[C@H](Cc2c[nH]c3ccccc23)NC(=O)[C@H](Cc2ccc(O)cc2)NC(=O)[C@H](CCC(=O)O)NC1=O)[C@@H](C)O"
  Quantity: "LDH: Cytotoxicity assay: % Effect"
  Test value: 1.172
- Compound: "CC(=O)N[C@@H](CCCCN=[N+]=[N-])C(=O)NCCC(=O)N[C@@H](CC(C)C)C(=O)N[C@H](C(=O)N[C@@H](Cc1ccccc1)C(=O)N[C@]1(C)CCCCCCn2cc(nn2)CCC[C@@](C)(C(=O)N[C@@H](CO)C(=O)N[C@@H](C)C(=O)N[C@@H](C)C(N)=O)NC(=O)[C@H](CC2CCC2)NC(=O)[C@H](CCC(N)=O)NC(=O)[C@H](C)NC(=O)[C@H](Cc2c[nH]c3ccccc23)NC(=O)[C@H](Cc2ccc(O)cc2)NC(=O)[C@H](CCC(=O)O)NC1=O)[C@@H](C)O"
  Quantity: "LDH: Cytotoxicity assay: % Effect"
  Test value: 13.49
- Compound: "CC(=O)N[C@@H](CCCCN=[N+]=[N-])C(=O)NCCC(=O)N[C@@H](CC(C)C)C(=O)N[C@H](C(=O)N[C@@H](Cc1ccccc1)C(=O)N[C@]1(C)CCCCC#CC#CCCC[C@@](C)(C(=O)N[C@@H](C)C(=O)N[C@@H](C)C(=O)N[C@@H](C)C(=O)N[C@@H](C)C(=O)N[C@@H](C)C(=O)N[C@H](C)C(N)=O)NC(=O)[C@H](CC2CCC2)NC(=O)[C@H](CCC(N)=O)NC(=O)[C@H](C)NC(=O)[C@H](Cc2c[nH]c3ccccc23)NC(=O)[C@H](Cc2ccc(O)cc2)NC(=O)[C@H](CCC(=O)O)NC1=O)[C@@H](C)O"
  Quantity: "LDH: Cytotoxicity assay: % Effect"
  Test value: 8.138

====

assay: Solubility assay (kinetic solubility, PBS pH 7); format: physicochemical; conditions: pH 7, PBS
Positions of bridges follow the written chain, without caps; N, C: chain ends. Non-standard residues stand in square brackets, D forms with d. Residues, ends and D or L forms follow the SMILES beside them. Lys(N3) = [N-]=[N+]=NCCCC[C@H](N)C(=O)O; R8 = C=CCCCCCC[C@@](C)(N)C(=O)O; Cba = N[C@@H](CC1CCC1)C(=O)O; S5 = C=CCCC[C@](C)(N)C(=O)O; βAla = NCCC(=O)O

- Compound: "CC(C)C[C@H](NC(=O)CCNC(=O)[C@@H](N)CCCCN=[N+]=[N-])C(=O)N[C@H](C(=O)N[C@@H](Cc1ccccc1)C(=O)N[C@]1(C)CCCCCCC=CCCC[C@@](C)(C(N)=O)NC(=O)[C@H](CC(C)C)NC(=O)[C@H](CC(C)C)NC(=O)[C@H](C)NC(=O)[C@H](Cc2c[nH]c3ccccc23)NC(=O)[C@H](Cc2ccc(O)cc2)NC(=O)[C@H](CCC(=O)O)NC1=O)[C@@H](C)O [MP-0176] (H-[Lys(N3)][βAla]LTF[R8]EYWALL[S5]-NH2; staple 6-13)"
  Solubility: "Poorly Behaved"
- Compound: "CC(C)C[C@H](NC(=O)[C@@H](N)CCCCN=[N+]=[N-])C(=O)N[C@H](C(=O)N[C@@H](Cc1ccccc1)C(=O)N[C@]1(C)CCCCCCC=CCCC[C@@](C)(C(=O)N[C@@H](CCC(=O)O)C(N)=O)NC(=O)[C@H](CC2CCC2)NC(=O)[C@H](CCC(N)=O)NC(=O)[C@H](C)NC(=O)[C@H](Cc2c[nH]c3ccccc23)NC(=O)[C@H](Cc2ccc(O)cc2)NC(=O)[C@H](CCC(=O)O)NC1=O)[C@@H](C)O [MP-4009] (H-[Lys(N3)]LTF[R8]EYWAQ[Cba][S5]E-NH2; staple 5-12)"
  Solubility: "Poorly Behaved"
- Compound: "CC(=O)N[C@@H](CC(C)C)C(=O)N[C@H](C(=O)N[C@@H](Cc1ccccc1)C(=O)N[C@]1(C)CCCCCCC=CCCC[C@@](C)(C(=O)N[C@@H](CO)C(=O)N[C@@H](C)C(=O)N[C@@H](C)C(N)=O)NC(=O)[C@H](CC(C)C)NC(=O)[C@H](CCC(N)=O)NC(=O)[C@H](C)NC(=O)[C@H](Cc2c[nH]c3ccccc23)NC(=O)[C@H](Cc2ccc(O)cc2)NC(=O)[C@H](CCC(=O)O)NC1=O)[C@@H](C)O"
  Solubility: 177

====

assay: physchem
Positions of bridges follow the written chain, without caps; N, C: chain ends. Non-standard residues stand in square brackets, D forms with d. Residues, ends and D or L forms follow the SMILES beside them. dPhe(4-CF3) = N[C@H](Cc1ccc(C(F)(F)F)cc1)C(=O)O; dTrp(6-F) = N[C@H](Cc1c[nH]c2cc(F)ccc12)C(=O)O; R5 = C=CCCC[C@@](C)(N)C(=O)O

- Compound: "CC(C)C[C@@H](NC(=O)[C@@]1(C)CCCC=CCCC[C@@](C)(NC(=O)[C@@H](C)NC(=O)[C@@H](Cc2ccc(O)cc2)NC(=O)[C@@H](Cc2c[nH]c3cc(F)ccc23)NC(=O)[C@@H](C)NC(=O)[C@H](N)[C@H](C)O)C(=O)N[C@H](Cc2ccc(C(F)(F)F)cc2)C(=O)N[C@H](CCC(=O)O)C(=O)N[C@H](CCC(N)=O)C(=O)N1)C(=O)N[C@H](CO)C(N)=O [MP-795] (H-[dT][dA][dTrp(6-F)][dY][dA][R5][dPhe(4-CF3)][dE][dQ][R5][dL][dS]-NH2; staple 6-10)"
  EPSA (A^2): 234
- Compound: "CC(=O)N[C@@H](C(=O)N[C@H](C)C(=O)N[C@H](Cc1c[nH]c2cc(F)ccc12)C(=O)N[C@H](Cc1ccc(O)cc1)C(=O)N[C@H](C)C(=O)N[C@]1(C)CCCC=CCCC[C@](C)(C(=O)N[C@H](CC(C)C)C(=O)N[C@H](CO)C(N)=O)NC(=O)[C@@H](CCC(N)=O)NC(=O)[C@@H](CCC(=O)O)NC(=O)[C@@H](Cc2ccc(C(F)(F)F)cc2)NC1=O)[C@H](C)O [MP-797] (Ac-[dT][dA][dTrp(6-F)][dY][dA][R5][dPhe(4-CF3)][dE][dQ][R5][dL][dS]-NH2; staple 6-10)"
  EPSA (A^2): 198

Source of measurements: paper PMC10786919
